- MEASUREMENT_TARGET: furin, P09958;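 also: purified furin at 1:10 enzyme:substrate in 50 mM HEPES pH 7.5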
- Sequence (P09958 whole entry): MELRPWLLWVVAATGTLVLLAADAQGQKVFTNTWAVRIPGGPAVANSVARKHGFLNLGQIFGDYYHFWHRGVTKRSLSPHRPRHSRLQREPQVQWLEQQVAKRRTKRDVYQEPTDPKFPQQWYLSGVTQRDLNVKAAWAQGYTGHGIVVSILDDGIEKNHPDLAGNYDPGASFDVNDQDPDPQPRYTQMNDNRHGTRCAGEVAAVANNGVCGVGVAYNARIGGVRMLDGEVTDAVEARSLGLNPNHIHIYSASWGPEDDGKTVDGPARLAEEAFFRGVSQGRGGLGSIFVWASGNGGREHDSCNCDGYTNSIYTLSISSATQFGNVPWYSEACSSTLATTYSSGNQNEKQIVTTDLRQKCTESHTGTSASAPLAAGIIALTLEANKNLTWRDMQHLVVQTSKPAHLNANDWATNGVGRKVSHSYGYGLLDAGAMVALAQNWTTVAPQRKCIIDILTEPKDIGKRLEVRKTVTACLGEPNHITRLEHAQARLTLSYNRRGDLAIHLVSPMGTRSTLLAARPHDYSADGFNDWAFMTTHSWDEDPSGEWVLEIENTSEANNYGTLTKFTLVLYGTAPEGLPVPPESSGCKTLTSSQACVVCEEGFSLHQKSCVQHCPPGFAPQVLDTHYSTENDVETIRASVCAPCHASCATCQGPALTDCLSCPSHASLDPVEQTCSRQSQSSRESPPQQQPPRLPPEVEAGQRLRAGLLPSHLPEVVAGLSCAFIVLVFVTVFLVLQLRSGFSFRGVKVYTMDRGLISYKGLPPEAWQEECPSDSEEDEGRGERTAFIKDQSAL
- TEST_NAME: furin cleavage Z-score vs untreated control; higher = more cleavage, active = 3.5 or more, inactive = 1 or less, 8 variable residues between constant flanks
- SETTINGS: 15 min
The other results are listed elsewhere or left out. How many sequences the whole screen found active is unknown.
I'd appreciate it if you could supply furin cleavage Z-score values for the items below.
Answers are plain numbers.

The cases that follow already have their furin cleavage Z-score on record.
CAEVVTSTWEAGNASASA [HC2252]; 1.24
CARTPREVEAAGNASASA [FS-2467]; 1.61
CARTPRSSSAAGNASASA [FS-2833]; -0.243
CARRPRRVEAAGNASASA [FS-1921]; 1.82
CARRPRQKEAAGNASASA [FS-2782]; -1.9

Report furin cleavage Z-score for each item below.
1. CADNKRMARNAGNASASA [FS-984]
2. CACQDHLEFWAGNASASA [HC936]

[6.32, -2.52]
